- Tested on: Enterococcus faecalis
- assay-remarks: Antimicrobial activity against Enterococcus faecalis ATCC 29212 using sub-cultures from MIC method grown subsequently on Mueller-Hinton agar plates at 37 degC for 24 hrs
- Format: functional
- measurement-setup: ATCC 29212, 24 h
property-name: log10(MBC) (log10 of the value in µg/mL)
Please interpret these as log10 of MBC where MBC is in µg/mL.

Answered examples (3):
{"compound": "COc1ccc(C2SCCC(=O)N2NC(=O)c2cc(Br)c(Br)n2C)c(O)c1 (centres undefined)", "log10(MBC)": 1.70}
{"compound": "COc1ccc(C2SCCC(=O)N2NC(=O)c2cc(Br)c(Br)n2C)cc1 (centres undefined)", "log10(MBC)": 2.00}
{"compound": "COc1ccc(C2SCCC(=O)N2NC(=O)c2cc(Br)c(Br)n2C)cc1O (centres undefined)", "log10(MBC)": 1.70}

For every item below, please supply its log10(MBC).
1. Cn1c(C(=O)NN2C(=O)CCSC2c2ccc([N+](=O)[O-])cc2)cc(Br)c1Br (centres undefined)
2. Cn1c(C(=O)NN2C(=O)CSC2c2ccc(Cl)cc2)cc(Br)c1Br (centres undefined)
3. COc1ccc(C2SCC(=O)N2NC(=O)c2cc(Br)c(Br)n2C)cc1 (centres undefined)
4. Cn1c(C(=O)NN2C(=O)CCSC2c2ccccc2)cc(Br)c1Br (centres undefined)

a:
1. 1.70
2. 1.40
3. 1.40
4. 2.00

Give measured log10(MBC) for every item shown.
1. COc1ccc(C2SCC(=O)N2NC(=O)c2cc(Br)c(Br)n2C)cc1O (centres undefined)
2. Cn1c(C(=O)NN2C(=O)CSC2c2cc(O)ccc2O)cc(Br)c1Br (centres undefined)
3. Cn1c(C(=O)NN2C(=O)CCSC2C/C=C/c2ccccc2)cc(Br)c1Br (centres undefined)
4. CN[C@H](CC(C)C)C(=O)N[C@H]1C(=O)N[C@@H](CC(N)=O)C(=O)N[C@H]2C(=O)N[C@H]3C(=O)N[C@H](C(=O)N[C@H](C(=O)O)c4cc(O)cc(O)c4-c4cc3ccc4O)[C@H](O)c3ccc(c(Cl)c3)Oc3cc2cc(c3O[C@@H]2O[C@H](CO)[C@@H](O)[C@H](O)[C@H]2O[C@H]2C[C@](C)(N)[C@H](O)[C@H](C)O2)Oc2ccc(cc2Cl)[C@H]1O [VANCOMYCIN]
5. Cn1c(C(=O)NN2C(=O)CSC2c2ccccc2)cc(Br)c1Br (centres undefined)
6. Cn1c(C(=O)NN2C(=O)CSC2c2ccc(F)cc2)cc(Br)c1Br (centres undefined)
7. Cn1c(C(=O)NN2C(=O)CCSC2c2ccc(F)cc2)cc(Br)c1Br (centres undefined)
8. Cn1c(C(=O)NN2C(=O)CCSC2c2ccc(Cl)cc2)cc(Br)c1Br (centres undefined)

a:
[1.10, 1.10, 1.70, 0.80, 1.40, 1.10, 1.70, 1.70]

Hey, can you go through the list below and give me log10(MBC) for every item?
1. Cn1c(C(=O)NN2C(=O)CSC2C/C=C/c2ccccc2)cc(Br)c1Br (centres undefined)
2. Cn1c(C(=O)NN2C(=O)CSC2c2ccc([N+](=O)[O-])cc2)cc(Br)c1Br (centres undefined)
3. COc1ccc(C2SCC(=O)N2NC(=O)c2cc(Br)c(Br)n2C)c(O)c1 (centres undefined)

a:
1: 1.10; 2: 1.40; 3: 1.40

Reading of log10(MBC) for Cn1c(C(=O)NN2C(=O)CCSC2c2cc(O)ccc2O)cc(Br)c1Br (centres undefined) with Enterococcus faecalis: 1.70
